Measured values drawn from patent US8614021B2 for this set.

# assay procedure: UV-Vis absorption and photoluminescence (PL) spectroscopy in solvents of varying polarity
# experimental context: DMSO; relative to a fluorescein standard at pH 12
outcome measure: η (quantum efficiency)
Give your answer as a number; write no unit.

# molecule, result value
rows = [
    ("C[N+](C)(C)CCCCCCN(CCCCCC[N+](C)(C)C)c1ccc(C=Cc2ccc(C=Cc3ccc(N(CCCCCC[N+](C)(C)C)CCCCCC[N+](C)(C)C)cc3)cc2)cc1.[I-].[I-].[I-].[I-]", 0.86),
    ("ICCCCCCN(CCCCCCI)c1ccc(C=Cc2ccc(C=Cc3ccc(N(CCCCCCI)CCCCCCI)cc3)cc2)cc1", 0.81),
    ("ICCCCCCN(CCCCCCI)c1ccc(C=Cc2ccc(C=Cc3ccc(C=Cc4ccc(N(CCCCCCI)CCCCCCI)cc4)cc3)cc2)cc1", 0.73),
]

// next item, η (quantum efficiency) requested
Return reported η (quantum efficiency); argument: C[N+](C)(C)CCCCCCN(CCCCCC[N+](C)(C)C)c1ccc(/C=C/c2ccc(/C=C/c3ccc(/C=C/c4ccc(N(CCCCCC[N+](C)(C)C)CCCCCC[N+](C)(C)C)cc4)cc3)cc2)cc1
0.71

###

# assay procedure: UV-Vis absorption and photoluminescence (PL) spectroscopy in solvents of varying polarity
# experimental context: DMSO
The entries below are paired with their reported λabs.
Field: numeric (nm). Do not append units.

# molecule, λabs / nm
records = [
    ("ICCCCCCN(CCCCCCI)c1ccc(C=Cc2ccc(C=Cc3ccc(N(CCCCCCI)CCCCCCI)cc3)cc2)cc1 [DSBN]", 419),
]

Return reported λabs; argument: C[N+](C)(C)CCCCCCN(CCCCCC[N+](C)(C)C)c1ccc(C=Cc2ccc(C=Cc3ccc(N(CCCCCC[N+](C)(C)C)CCCCCC[N+](C)(C)C)cc3)cc2)cc1.[I-].[I-].[I-].[I-] [DSBN+]
419

Param item: ICCCCCCN(CCCCCCI)c1ccc(C=Cc2ccc(C=Cc3ccc(C=Cc4ccc(N(CCCCCCI)CCCCCCI)cc4)cc3)cc2)cc1 [DSSN]
436

Param item: C[N+](C)(C)CCCCCCN(CCCCCC[N+](C)(C)C)c1ccc(/C=C/c2ccc(/C=C/c3ccc(/C=C/c4ccc(N(CCCCCC[N+](C)(C)C)CCCCCC[N+](C)(C)C)cc4)cc3)cc2)cc1 [DSSN+]
435
